Target: T1, 4H1406-bH
T1 chain: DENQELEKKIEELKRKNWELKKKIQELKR
Assay: two-hybrid library CCNG1;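 note: natural log of median RNA to DNA barcode read ratio; higher means stronger binding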
property.label: interaction score

Past entries and their recorded results:
DENQELEKENEELERKIWELKKEIQELER [4H1193-bH] = -0.835
DENQELEKKIEELKRKIWELKKENQELER [4H1387-bH] = -0.693

1. DENQELEKEIEELERKIWELKKKNQELKR [4H1072-bH]
2. DENQELEKKIEELKRKNWELKKKIQELKR [4H1406-bH]
Inquiry: Determine, for 1 and 2 , which has the greater value of interaction score. // output: label of the selected item
Reply text: 1
